OUTCOME_MEASURE: melting point

Consider the reported melting point for these compounds:
COMPOUND: CC(C(=O)N(C)C)n1c(-c2ccc(Cl)cc2)nc2cccnc21 (stereo not given)
EXPERIMENTAL_RESULT: 124 to 126 °C

COMPOUND: CC(C)(C(=O)O)c1ccc2cc(OCc3ccc4ccccc4n3)ccc2c1
EXPERIMENTAL_RESULT: 207 to 209 °C

Exercise: Reported melting point for `CCCCOC(=O)NNc1n[nH]c2cc(Cl)ccc12` : what is it?
Solution: 150 to 152 °C

Exercise: Reported melting point for `Fc1ccc(-c2[nH]cc(CCCN3CCCCC3)c2-c2ccncc2)cc1` : what is it?
Solution: 195 to 197 °C

Exercise: Reported melting point for `Cc1nc2ccsc2c2ccccc12` : what is it?
Solution: 74 to 76 °C

Exercise: Reported melting point for `CCOCc1nc2c(N)nc3cc(-c4ccccc4)ccc3c2n1CC1CCN(C(=O)OC(C)(C)C)CC1` : what is it?
Solution: 194 to 195 °C

Exercise: Reported melting point for `O=C(Nc1cnc2ccc(Cl)cc2c1-c1ccccc1)Nc1c(F)cccc1F` : what is it?
Solution: 228 to 229 °C

Exercise: Reported melting point for `NC(=O)c1c(C(=O)O)cnn1-c1ccc(Cl)cc1` : what is it?
Solution: 249 to 250 °C

Exercise: Reported melting point for `N#Cc1cccc(Oc2c(-c3ccccc3)cccc2-c2ccccc2)c1C#N` : what is it?
Solution: 129 to 130 °C

Exercise: Reported melting point for `CCOC(=O)c1ccc(OCCC2CCN(c3cc(Cl)nnc3Cl)CC2)cc1` : what is it?
Solution: 153 to 155 °C

* * *

A collection of compounds and their measured melting point

Consider the reported melting point for these compounds:
COMPOUND: CN(C)Cc1nc(C#N)nn1-c1ccc(Cl)cc1C(=O)c1ccccc1Cl
EXPERIMENTAL_RESULT: 117 to 119 °C
--
COMPOUND: NC(=O)c1ccc(N[C@H]2CC[C@H](N)CC2)cc1F
EXPERIMENTAL_RESULT: 166 to 167 °C
--
COMPOUND: COc1ccc(C2(CCCCl)S(=O)CCCS2=O)cc1OC (stereo not drawn)
EXPERIMENTAL_RESULT: 163 to 164 °C
--
COMPOUND: COC(=O)CCc1oc(C)nc1-c1ccc(Cl)cc1
EXPERIMENTAL_RESULT: 74 to 75 °C
--
COMPOUND: CN(C)CCC(=O)Nc1ccc2c(c1)C(=O)c1cc(NC(=O)CCN(C)C)ccc1C2=O
EXPERIMENTAL_RESULT: 196 °C
--
COMPOUND: Cc1nn(-c2cc(C(=O)O)c(Cl)cc2F)c(=O)n1C(F)F
EXPERIMENTAL_RESULT: 132 to 135 °C
--
COMPOUND: C1=C(c2ccccc2)SCCS1
EXPERIMENTAL_RESULT: 54 to 55 °C
--
COMPOUND: COc1nc(C)nc(NC(=O)NS(=O)(=O)C(C)S(=O)(=O)N2CCCC2)n1 (stereo not drawn)
EXPERIMENTAL_RESULT: 136 to 137 °C

Exercise: Reported melting point for `Cc1cnc(NN)nc1N` : what is it?
Solution: 174 to 175 °C

Exercise: Reported melting point for `CC(=O)Nc1ccc(OC(C)=O)c(C(=O)Nc2cccc3[nH]ccc23)c1` : what is it?
Solution: 263 °C

Exercise: Reported melting point for O=C(NC1CCCCC1=Cc1ccccc1)C(F)(F)F (stereo not drawn) : what is it?
Solution: 109 to 110 °C

Exercise: Reported melting point for CN(C)C1CCc2[nH]c3c(CO)cccc3c2C1 (stereo not drawn) : what is it?
Solution: 227 to 230 °C

Exercise: Reported melting point for `CC(C)(O)CCOc1c(-c2ccc(S(C)(=O)=O)cc2)cnn(-c2ccc(Cl)c(Cl)c2)c1=O` : what is it?
Solution: 118 to 120 °C

Exercise: Reported melting point for `Cc1noc(NS(=O)(=O)c2ccccc2)c1-c1ccccc1` : what is it?
Solution: 124 to 126 °C

Exercise: Reported melting point for `Cc1ccc2ccc(C(=O)O)nc2c1` : what is it?
Solution: 160 to 162 °C

Exercise: Reported melting point for `CC(C)OC(=O)C1Oc2ccccc2Cc2ccccc2O1` : what is it?
Solution: 94 to 97 °C

Exercise: Reported melting point for `Cc1ccc(S(=O)(=O)Nc2ccc(N)c(C3CCCC3)c2)cc1` : what is it?
Solution: 128 °C

Exercise: Reported melting point for `CC(C)c1ccc(S(=O)(=O)Nc2ccc(C(F)(F)F)cc2I)cc1` : what is it?
Solution: 101 °C

Exercise: Reported melting point for `C[C@@H](Cn1ncc2ccc3oc(C(N)=O)nc3c21)N=[N+]=[N-]` : what is it?
Solution: 162 to 164 °C

Exercise: Reported melting point for `CC(=NOCC(N)=O)c1ccc(Cl)cc1` : what is it?
Solution: 103 to 104 °C

Exercise: Reported melting point for `Clc1ccc2c(c1)N=C(NCc1cccnc1)c1ccccc1S2` : what is it?
Solution: 152 to 153 °C

Exercise: Reported melting point for CCNC(=S)NC1CCCc2ccccc21 (stereo not drawn) : what is it?
Solution: 120 to 122 °C

Exercise: Reported melting point for CC(=O)OC1CSC(Oc2cccnc2-c2ccncc2)C(OC(C)=O)C1OC(C)=O (stereo not drawn) : what is it?
Solution: 161 °C
